Test system: NCI-H196 complex spheroid viability
test_method_notes: Anticancer human tumor NCI-H196 cell line growth inhibition [LSD1]; active means viability on the fitted dose curve at most 10% of control; inactive means the rest
test_conditions: second compound 3.16 µM; first compound 0.03 µM
Write down one outcome, taken from active, inactive

- CCN(c1cc(-c2ccc(CN3CCOCC3)cc2)cc(C(=O)NCc2c(C)cc(C)[nH]c2=O)c1C)C1CCOCC1 + NC1CCC(NC2CC2c2ccccc2)CC1: inactive
- COc1cc(C2c3cc4c(cc3C(OC3OC5COC(C)OC5C(O)C3O)C3COC(=O)C23)OCO4)cc(OC)c1O (stereo unspecified) + NC1CC1c1ccc(-c2cccc(O)c2)cc1: inactive
- O=C(C=Cc1cccc(S(=O)(=O)Nc2ccccc2)c1)NO + NC1CCC(NC2CC2c2ccccc2)CC1: inactive

What was the test verdict on Nc1ccn(C2OC(CO)C(O)C2(F)F)c(=O)n1 (stereo unspecified) + NC1CC1c1ccc(-c2cccc(O)c2)cc1 ? inactive

----------
Test system: NCI-H196 complex spheroid viability
test_method_notes: Anticancer human tumor NCI-H196 cell line growth inhibition [LSD1]
test_conditions: second compound 10 µM; first compound 0.949 µM; hits give low values
From the text: Multicellular complex tumor spheroid response to LSD1 Inhibitor Iadademstat in combination with a variety of drugs and investigational agents in selected tumor cell lines The current study was undertaken to assess response to LSD1 inhibitors in combination with standard-of-care drugs and investigational agents in solid tumor complex spheroid models as well as in the K-562 leukemia. […] Compounds. […] If the clinical Cmax for an agent had not been determined, the highest concentration tested was 10 microM. […]
Consider the following compounds and their measured viability, T/C readings.

Some solved entries appear below for comparison.
- NS(=O)(=O)OCC1CC(n2ccc3c(NC4CCc5ccccc54)ncnc32)CC1O (stereo not drawn) + NC1CCC(NC2CC2c2ccccc2)CC1: 78.3%
- COc1cc(C2c3cc4c(cc3C(OC3OC5COC(C)OC5C(O)C3O)C3COC(=O)C23)OCO4)cc(OC)c1O (stereo not drawn) + NC1CCC(NC2CC2c2ccccc2)CC1: 81.6%

get_value(item= COc1cc(C2c3cc4c(cc3C(OC3OC5COC(C)OC5C(O)C3O)C3COC(=O)C23)OCO4)cc(OC)c1O (stereo not drawn) + NC1CC1c1ccc(-c2cccc(O)c2)cc1 , readout=viability, T/C) returns 78.5%

----------
Tested on: NCI-H196 complex spheroid viability
test_method_notes: Anticancer human tumor NCI-H196 cell line growth inhibition [LSD1]
test_conditions: second compound 0.1 µM; first compound 0.00949 µM; hits give low values
A collection of molecules and their measured viability, T/C
Expressed in %, but write only the number.

* Nc1ccccc1NC(=O)c1ccc(CNC(=O)OCc2cccnc2)cc1 + NC1CCC(NC2CC2c2ccccc2)CC1 | 82.9
* Nc1ncn(C2CC(O)C(CO)S2)c(=O)n1 (centres undefined) + NC1CCC(NC2CC2c2ccccc2)CC1 | 121
* NS(=O)(=O)OCC1CC(n2ccc3c(NC4CCc5ccccc54)ncnc32)CC1O (centres undefined) + NC1CC1c1ccc(-c2cccc(O)c2)cc1 | 83.6

For CCc1c2c(nc3ccc(O)cc13)-c1cc3c(c(=O)n1C2)COC(=O)[C@]3(O)CC + NC1CC1c1ccc(-c2cccc(O)c2)cc1 on NCI-H196 complex spheroid viability, measured viability, T/C was 42

Value sought: viability, T/C, system NCI-H196 complex spheroid viability, item COc1cc(C2c3cc4c(cc3C(OC3OC5COC(C)OC5C(O)C3O)C3COC(=O)C23)OCO4)cc(OC)c1O (centres undefined) + NC1CCC(NC2CC2c2ccccc2)CC1 . Result: 94.1

Bench note, NCI-H196 complex spheroid viability: entry NS(=O)(=O)OCC1CC(n2ccc3c(NC4CCc5ccccc54)ncnc32)CC1O (centres undefined) + NC1CCC(NC2CC2c2ccccc2)CC1 , its viability, T/C = 109

Entry Nc1ncn(C2CC(O)C(CO)S2)c(=O)n1 (centres undefined) + NC1CC1c1ccc(-c2cccc(O)c2)cc1 under NCI-H196 complex spheroid viability had viability, T/C of 108

Entry Nc1ccccc1NC(=O)c1ccc(CNC(=O)OCc2cccnc2)cc1 + NC1CC1c1ccc(-c2cccc(O)c2)cc1 ; assay system NCI-H196 complex spheroid viability; viability, T/C recorded at 77.6

The reported viability, T/C value, NCI-H196 complex spheroid viability, for O=C(C=Cc1cccc(S(=O)(=O)Nc2ccccc2)c1)NO + NC1CC1c1ccc(-c2cccc(O)c2)cc1 reads 106

----------
Each item that follows carries a reported viability, T/C.
Test system: NCI-H196 complex spheroid viability
test_method_notes: Anticancer human tumor NCI-H196 cell line growth inhibition [LSD1];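 further: spheroids exposed to agents for 7 days before readout; 100% = DMSO vehicle control viability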
test_conditions: second compound 0.316 µM; first compound 0.000949 µM; hits give low values
Note: unit % is implicit; provide only the numeric part.

• CCc1c2c(nc3ccc(O)cc13)-c1cc3c(c(=O)n1C2)COC(=O)[C@]3(O)CC + NC1CC1c1ccc(-c2cccc(O)c2)cc1 = 107
• CCc1c2c(nc3ccc(O)cc13)-c1cc3c(c(=O)n1C2)COC(=O)[C@]3(O)CC + NC1CCC(NC2CC2c2ccccc2)CC1 = 123
• Nc1ccn(C2OC(CO)C(O)C2(F)F)c(=O)n1 (centres undefined) + NC1CC1c1ccc(-c2cccc(O)c2)cc1 = 106

// moving on: another record for viability, T/C
Form field viability, T/C, entry Nc1ncn(C2CC(O)C(CO)S2)c(=O)n1 (centres undefined) + NC1CCC(NC2CC2c2ccccc2)CC1 : 103

----------
System: NCI-H196 complex spheroid viability
test_method_notes: Anticancer human tumor NCI-H196 cell line growth inhibition [LSD1];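 further: spheroids exposed to agents for 7 days before readout; 100% = DMSO vehicle control viability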
test_conditions: second compound 0.1 µM; first compound 0.1 µM; hits give low values
// viability, T/C lookup, one value per entry
Give the value in % but do not write % after it.

Lab book: viability, T/C of CC1(C)CCC(CN2CCN(c3ccc(C(=O)NS(=O)(=O)c4ccc(NCC5CCOCC5)c([N+](=O)[O-])c4)c(Oc4cnc5[nH]ccc5c4)c3)CC2)=C(c2ccc(Cl)cc2)C1 + NC1CC1c1ccc(-c2cccc(O)c2)cc1 noted as 99.9

Record O=C(C=Cn1cnc(-c2cc(C(F)(F)F)cc(C(F)(F)F)c2)n1)NNc1cnccn1 + NC1CC1c1ccc(-c2cccc(O)c2)cc1 . Reported viability, T/C: 14.6

// viability, T/C lookup, compound = Cn1ncnc1C1c2n[nH]c(=O)c3cc(F)cc(c23)NC1c1ccc(F)cc1 (stereo unspecified) + NC1CC1c1ccc(-c2cccc(O)c2)cc1 , result: 98.3

Per the records, this compound ( Cn1ncnc1C1c2n[nH]c(=O)c3cc(F)cc(c23)NC1c1ccc(F)cc1 (stereo unspecified) + NC1CCC(NC2CC2c2ccccc2)CC1 ) has viability, T/C equal to 99.6

Looking up COc1cc(Nc2ncc3c(n2)-c2ccc(Cl)cc2C(c2c(F)cccc2OC)=NC3)ccc1C(=O)O + NC1CCC(NC2CC2c2ccccc2)CC1 , I see its viability, T/C listed as 116

viability, T/C in this record for CC1COCCN1c1cc(-c2ccnn2C)c2ccnc(-c3ccn[nH]3)c2n1 (stereo unspecified) + NC1CCC(NC2CC2c2ccccc2)CC1 : 58.1

----------
Here the recorded viability, T/C is given for each entry.
Test system: NCI-H196 complex spheroid viability
test_method_notes: Anticancer human tumor NCI-H196 cell line growth inhibition [LSD1];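 further: spheroids exposed to agents for 7 days before readout; 100% = DMSO vehicle control viability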
test_conditions: second compound 3.16 µM; first compound 0.003 µM; hits give low values
Number in %, nothing else.

Example cases with answers are listed next.
* Nc1ccn(C2OC(CO)C(O)C2(F)F)c(=O)n1 (stereo not drawn) + NC1CCC(NC2CC2c2ccccc2)CC1 | 103
* Nc1ncn(C2CC(O)C(CO)S2)c(=O)n1 (stereo not drawn) + NC1CCC(NC2CC2c2ccccc2)CC1 | 106

Documented viability, T/C of Nc1ncn(C2CC(O)C(CO)S2)c(=O)n1 (stereo not drawn) + NC1CC1c1ccc(-c2cccc(O)c2)cc1 : 102

----------
Test system: NCI-H196 complex spheroid viability
test_method_notes: Anticancer human tumor NCI-H196 cell line growth inhibition [LSD1];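 further: spheroids exposed to agents for 7 days before readout; 100% = DMSO vehicle control viability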
test_conditions: second compound 1 µM; first compound 0.003 µM; hits give low values
// reported viability, T/C per item
# unit: % | format: bare number

// recorded viability, T/C for Nc1ncn(C2CC(O)C(CO)S2)c(=O)n1 (stereo not given) + NC1CC1c1ccc(-c2cccc(O)c2)cc1 : 110

compound Nc1ccn(C2OC(CO)C(O)C2(F)F)c(=O)n1 (stereo not given) + NC1CCC(NC2CC2c2ccccc2)CC1 , viability, T/C observed: 96.7

Recorded viability, T/C (compound CCc1c2c(nc3ccc(O)cc13)-c1cc3c(c(=O)n1C2)COC(=O)[C@]3(O)CC + NC1CC1c1ccc(-c2cccc(O)c2)cc1 ): 94.9

So, Nc1ncn(C2CC(O)C(CO)S2)c(=O)n1 (stereo not given) + NC1CCC(NC2CC2c2ccccc2)CC1 ? Its viability, T/C was 105

Reported viability, T/C for CCc1c2c(nc3ccc(O)cc13)-c1cc3c(c(=O)n1C2)COC(=O)[C@]3(O)CC + NC1CCC(NC2CC2c2ccccc2)CC1 was 111
